Recorded glass transition temperature by entry

molecule	glass transition temperature / °C
*CCNC(=O)CCCCC(=O)N* (repeat unit)	71.00
*Nc1ccc(Cc2ccc(NC(=O)c3cc(NC(=O)C(C(C)CC)N4C(=O)c5ccccc5C4=O)cc(C(*)=O)c3)cc2)cc1 (repeat unit)	195.00
*C(=O)c1ccc2c(c1)C(=O)N(c1c(-c3ccccc3)cc(-c3ccc(-c4cc(-c5ccccc5)c(N5C(=O)c6ccc(*)cc6C5=O)c(-c5ccccc5)c4)cc3)cc1-c1ccccc1)C2=O (repeat unit)	265.00
*CCCCCCNC(=O)CCCC(=O)O* (repeat unit)	-18.00
*Oc1cccc(Oc2ccc(NC(=O)c3ccc(-c4ccc(C(=O)Nc5ccc(*)cc5)c(C)c4)cc3C)cc2)c1 (repeat unit)	213.00
*c1cccc(NC(=O)c2ccc(OCCOCCOc3ccc(C(=O)Nc4ccc5[nH]c(*)nc5c4)cc3)cc2)c1 (repeat unit)	215.00
*CCCCCCOC(=O)CC(=O)OCCCCCCOc1ccc(-n2on2-c2ccc(O*)cc2)cc1 (repeat unit)	16.00
*O[Si](*)(C)CCCOC(=O)c1cc(OC(=O)c2ccc(OCCOCCOCCOCCOC)cc2)ccc1OC(=O)c1ccc(OCCOCCOCCOCCOC)cc1 (repeat unit)	-37.00
*CC1CCCC(CN2C(=O)c3ccc(C(c4ccc5c(c4)C(=O)N(*)C5=O)(C(F)(F)F)C(F)(F)F)cc3C2=O)C1 (repeat unit)	222.00
*Oc1c(-c2ccccc2)cc(*)cc1-c1ccc(C)cc1 (repeat unit)	218.00
*CC(*)(C)C(=O)OCCc1ccc(/N=N/c2ccc(OC(F)(F)F)cc2)cc1 (repeat unit)	209.50
*c1ccc2oc(-c3ccc(C(c4ccc(-c5nc6cc(C(*)(C(F)(F)F)C(F)(F)F)ccc6o5)cc4)(C(F)(F)F)C(F)(F)F)cc3)nc2c1 (repeat unit)	336.00
*C(=O)c1ccc2c(c1)C(=O)N(c1cccc(Nc3nc(Nc4cccc(N5C(=O)c6ccc(*)cc6C5=O)c4)nc(-c4ccccc4)n3)c1)C2=O (repeat unit)	292.00
*CCCCCCCCCCC(=O)N* (repeat unit)	46.00
*CC(*)(C)C(=O)OCCCCCCCCOc1ccc(/N=N/c2ccc(C#N)cc2)cc1 (repeat unit)	35.00
